molecular target: myeloperoxidase (MPO) (Homo sapiens); assay: MPO peroxidation assay (Amplex Red assay); assay type: biochemical; settings: MPO peroxidation, potency range class; read-out: Amplex Red IC50
Sequence (P05164 49-745): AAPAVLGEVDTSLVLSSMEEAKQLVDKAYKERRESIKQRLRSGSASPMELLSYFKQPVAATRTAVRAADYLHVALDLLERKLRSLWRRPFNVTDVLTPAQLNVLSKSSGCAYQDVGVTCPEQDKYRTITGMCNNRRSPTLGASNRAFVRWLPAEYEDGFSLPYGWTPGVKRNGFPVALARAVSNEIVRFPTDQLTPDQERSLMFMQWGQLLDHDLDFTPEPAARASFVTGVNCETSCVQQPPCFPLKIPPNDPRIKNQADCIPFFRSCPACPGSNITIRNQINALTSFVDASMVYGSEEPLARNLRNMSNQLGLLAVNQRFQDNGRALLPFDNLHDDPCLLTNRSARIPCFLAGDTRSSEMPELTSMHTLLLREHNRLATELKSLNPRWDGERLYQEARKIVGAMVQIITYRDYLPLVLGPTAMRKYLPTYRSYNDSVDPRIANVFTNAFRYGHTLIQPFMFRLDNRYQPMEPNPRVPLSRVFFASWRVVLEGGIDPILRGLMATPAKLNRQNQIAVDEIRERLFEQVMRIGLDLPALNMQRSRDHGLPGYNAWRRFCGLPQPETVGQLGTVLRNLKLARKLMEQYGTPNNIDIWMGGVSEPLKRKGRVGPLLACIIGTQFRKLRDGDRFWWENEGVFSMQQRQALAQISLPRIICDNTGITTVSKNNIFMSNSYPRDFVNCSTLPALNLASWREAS
reported_property: IC50

- molecule: "N#Cc1ccc(-c2ccc(COc3cc(N)nc4[nH]nnc34)c(C#N)c2)cn1"
  IC50: "1 to 100 nM"
- molecule: "Nc1cc(OCc2c(F)cc(-n3ccnc3)cc2F)c2nn[nH]c2n1"
  IC50: "101 to 999 nM"
- molecule: "Nc1cc(OCc2c(F)cc(-n3ncc4ccccc43)cc2F)c2nn[nH]c2n1"
  IC50: "1 to 100 nM"
- molecule: "Nc1cc(OCc2cc(C(=O)N(CCO)Cc3ccccc3)ccc2Cl)c2nn[nH]c2n1"
  IC50: "101 to 999 nM"
- molecule: "COc1ccc(Cl)cc1COc1cc(N)nc2[nH]nnc12"
  IC50: "1 to 100 nM"
- molecule: "COC(=O)c1cccc(COc2cc(N)nc3[nH]nnc23)c1"
  IC50: "1 to 100 nM"
- molecule: "CC(NC(=O)c1ccc(COc2cc(N)nc3[nH]nnc23)c(Cl)c1)c1ccccc1 (stereo not drawn)"
  IC50: "1 to 100 nM"
- molecule: "Nc1cc(OCc2cccc(OC3CC3)c2)c2nn[nH]c2n1"
  IC50: "1 to 100 nM"

Next, consider the following molecule.
Input line: Would you mind telling me what IC50 value was observed for Cc1nccn1-c1ccc(COc2cc(N)nc3[nH]nnc23)c(C#N)c1 ?
Output line: 101 to 999 nM

---

target: myeloperoxidase (MPO) (Homo sapiens); experiment: MPO peroxidation assay (Amplex Red assay); assay type: biochemical; conditions: MPO peroxidation, potency range class; read-out: Amplex Red IC50
pIC50: −log10 of the molar value.
reported_property: pIC50

Guide cases for pIC50, answers given:
- molecule: "CS(=O)(=O)c1cc(-n2ccnc2)ccc1COc1cc(N)nc2[nH]nnc12 [Example 280]"
  target_of_assay: "myeloperoxidase (MPO) (Homo sapiens)"
  pIC50: "6.00 to 7.00"
- molecule: "CS(=O)(=O)c1cc(Cl)cc(COc2cc(N)nc3[nH]nnc23)c1 [Example 44]"
  target_of_assay: "myeloperoxidase (MPO) (Homo sapiens)"
  pIC50: "6.00 to 7.00"
- molecule: "N#Cc1cc(-c2ccc(N3CCNC(=O)C3)nc2)ccc1COc1cc(N)nc2[nH]nnc12 [Example 349]"
  target_of_assay: "myeloperoxidase (MPO) (Homo sapiens)"
  pIC50: "6.00 to 7.00"
- molecule: "COc1ccccc1CNC(=O)c1ccc(COc2cc(N)nc3[nH]nnc23)c(Cl)c1 [Example 331]"
  target_of_assay: "myeloperoxidase (MPO) (Homo sapiens)"
  pIC50: "7.00 to 9.00"
- molecule: "N#Cc1cccc(-c2cccc(COc3cc(N)nc4[nH]nnc34)c2)c1 [Example 92]"
  target_of_assay: "myeloperoxidase (MPO) (Homo sapiens)"
  pIC50: "7.00 to 9.00"
- molecule: "Nc1cc(OCc2cc(S(F)(F)(F)(F)F)ccc2F)c2nn[nH]c2n1 [Example 226]"
  target_of_assay: "myeloperoxidase (MPO) (Homo sapiens)"
  pIC50: "7.00 to 9.00"
- molecule: "CN1CCN(c2ncc(-c3ccc(COc4cc(N)nc5[nH]nnc45)c(C#N)c3)cn2)CC1 [Example 321]"
  target_of_assay: "myeloperoxidase (MPO) (Homo sapiens)"
  pIC50: "7.00 to 9.00"
- molecule: "COc1cccc(Cl)c1-c1cccc(COc2cc(N)nc3[nH]nnc23)c1 [Example 124]"
  target_of_assay: "myeloperoxidase (MPO) (Homo sapiens)"
  pIC50: "6.00 to 7.00"
- molecule: "Nc1cc(OCc2ccccc2C(F)(F)F)c2nn[nH]c2n1 [Example 239]"
  target_of_assay: "myeloperoxidase (MPO) (Homo sapiens)"
  pIC50: "7.00 to 9.00"
- molecule: "COc1ccc(-c2ccc(COc3cc(N)nc4[nH]nnc34)c(C#N)c2)cn1 [Example 310]"
  target_of_assay: "myeloperoxidase (MPO) (Homo sapiens)"
  pIC50: "7.00 to 9.00"

Input line: Tell me reported pIC50 for CS(=O)(=O)c1cncc(-c2ccc(COc3cc(N)nc4[nH]nnc34)c(C#N)c2)c1 [Example 322] , tested with myeloperoxidase (MPO) (Homo sapiens).
Output line: 7.00 to 9.00

Input line: Hello, I am looking for reported pIC50 with myeloperoxidase (MPO) (Homo sapiens) for COc1ccccc1CNC(=O)c1ccc(COc2cc(N)nc3[nH]nnc23)c(Cl)c1 [Example 215] . Could you help?
Output line: 7.00 to 9.00

Input line: API: value(readout= pIC50, system= myeloperoxidase (MPO) (Homo sapiens), query= CNC(=O)CNC(=O)c1ccc(COc2cc(N)nc3[nH]nnc23)c(Cl)c1 [Example 218] )
Output line: 6.00 to 7.00

Input line: # get_value(readout= pIC50, system= myeloperoxidase (MPO) (Homo sapiens)) for N#Cc1cc(-c2cnc(N3CCNCC3)nc2)ccc1COc1cc(N)nc2[nH]nnc12 [Example 329]
Output line: 7.00 to 9.00

Values from patent US10316035B2
